System: HOP-62 NSCLC
Assay: NCI tumour cell line growth inhibition, 48 h
Value Kind: GI50

{"columns": ["Smiles Notation", "GI50"],
 "data": [
  ["C=C(CN1CCc2[nH]c3ccc(F)cc3c2C1)c1ccc(C(=O)Nc2ccccc2N)cc1", "605 nM"]
]}

Data request, read-out GI50, for "O=C(COc1ccc(/C=C2\Oc3ccccc3C2=O)cc1)Nc1nc2ccccc2s1" > 69400 nM

Data request, read-out GI50, for "O=C(c1cccs1)c1c(C(F)(F)F)n([O-])c2cc(Cl)c(Cl)cc2[n+]1=O" 1770 nM

Data request, read-out GI50, for "OCCCCC#Cc1ccccc1C#Cc1cccc(C(F)(F)F)c1" 16900 nM

Hey, just so you know, these numbers are from PubChem BioAssay (NCI).
